- tgt: human S1P1 receptors (Homo sapiens)
- Construct: myc (N)
- Sequence (P21453 whole entry): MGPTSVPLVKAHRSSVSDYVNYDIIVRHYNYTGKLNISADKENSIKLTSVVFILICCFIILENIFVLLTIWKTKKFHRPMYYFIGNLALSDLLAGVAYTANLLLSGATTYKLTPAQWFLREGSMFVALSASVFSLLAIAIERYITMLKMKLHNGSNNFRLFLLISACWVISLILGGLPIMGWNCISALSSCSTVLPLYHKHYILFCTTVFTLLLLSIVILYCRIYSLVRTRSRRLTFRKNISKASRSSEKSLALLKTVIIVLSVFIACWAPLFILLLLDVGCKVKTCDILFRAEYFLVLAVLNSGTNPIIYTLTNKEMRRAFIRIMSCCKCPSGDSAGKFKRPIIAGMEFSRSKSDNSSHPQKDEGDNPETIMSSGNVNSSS
- assay_text: Human S1P1 Receptor Calcium FLIPR Antagonist Assay (HeLa Gα16 S1P1)
- applied_conditions: relative antagonism of Ca2+ signal evoked by probing agonist GNF-AC-1 at EC80; HeLa-S1P1/Gα16 cells
- Method: Human S1P1 Receptor Calcium FLIPR Antagonist Assay The cells are plated in 384 well black plates (10′000 cells per well). […] After washing, the cells are transferred to the FLIPR. The test compounds are added at different concentrations […]) in HBSS in the presence of 0.1% BSA and changes in fluorescence are recorded (indication of agonism). […] This allows the determination of the maximal fluorescence (Fmax). […]
Entries and their IC50
assay_readout: IC50

molecule=Cc1cc([C@@H](C)Nc2ccc(F)c(-c3cc(C)c(C(=O)N[C@@H](C)C(=O)O)c(C)c3)c2)ccc1Cl result="1 nM"
molecule="Cc1cc(C(C)Nc2cccc(-c3cc(C)c(C(=O)N[C@@H](C)C(=O)O)c(C)c3)c2)c(C)cc1Cl (some centres unmarked)" result="5 nM"
molecule="Cc1cc(-c2cccc(NC(C)c3ccc(Cl)c(F)c3)c2)cc(C)c1C(=O)N[C@@H](C)C(=O)O (some centres unmarked)" result="3 nM"
molecule=Cc1cc([C@@H](C)Nc2cccc(-c3cc(C)c(C(=O)NC4(C(=O)O)CC4)c(C)c3)c2)ccc1Cl result="2 nM"
molecule=Cc1cc(C(C)(C)Nc2cccc(-c3cc(C)c(C(=O)NC4(C(=O)O)CC4)c(C)c3)c2)ccc1Cl result="2 nM"
molecule=Cc1cc([C@@H](C)Nc2cccc(-c3cc(C)c(C(=O)N[C@@H](C)C(=O)O)c(C)c3)c2)cc(C)c1Cl result="1 nM"
molecule="COc1ccc(C(C)Nc2cccc(-c3cc(C)c(C(=O)N[C@@H](C)C(=O)O)c(C)c3)c2)cc1Cl (some centres unmarked)" result="2 nM"
molecule=Cc1cc([C@@H](C)Nc2cccc(-c3cc(C)c(C(=O)N(C)[C@@H](C)C(=O)O)c(C)c3)c2)ccc1Cl result="4 nM"
molecule="Cc1cc(C(C)Nc2ccc(F)c(-c3ccc(C(=O)N(C)[C@@H](C)C(=O)O)c(Cl)c3)c2)ccc1Cl (some centres unmarked)" result="4 nM"
molecule="COc1ccc(C(C)Nc2cccc(-c3cc(C)c(C(=O)N[C@@H](C)C(=O)O)c(C)c3)c2)cc1C(F)(F)F (some centres unmarked)" result="1 nM"
molecule=CC[C@@H](Nc1cccc(-c2cc(C)c(C(=O)N[C@@H](C)C(=O)O)c(C)c2)c1)c1cc(C)c(Cl)c(C)c1 result="1 nM"
molecule="Cc1cc(C)cc(C(C)Nc2cccc(-c3cc(C)c(C(=O)N[C@@H](C)C(=O)O)c(C)c3)c2)c1 (some centres unmarked)" result="3 nM"
molecule="COc1c(F)cc(C(C)Nc2cccc(-c3cc(C)c(C(=O)N[C@@H](C)C(=O)O)c(C)c3)c2)cc1F (some centres unmarked)" result="3 nM"
molecule="Cc1cc(C(C)Nc2cccc(-c3cc(C)c(C(=O)N[C@@H](C)C(=O)O)c(C)c3)c2)cc(C)c1Cl (some centres unmarked)" result="2 nM"
molecule="Cc1cc(C(Nc2cccc(-c3ccc(C(=O)N(C)C4(C(=O)O)CC4)c(C(F)(F)F)c3)c2)C(F)(F)F)ccc1Cl (centres unmarked)" result="4 nM"
molecule="CCc1cc(-c2cccc(NC(C)c3ccc(Cl)c(C)c3)c2)ccc1C(=O)N[C@@H](C)C(=O)O (some centres unmarked)" result="3 nM"
molecule="Cc1cc(C(C)Nc2cccc(-c3ccc(C(=O)N(C)[C@@H](C)C(=O)O)c(C(F)(F)F)c3)c2)cc(C)c1Cl (some centres unmarked)" result="6 nM"
molecule=Cc1cc(C(C)(C)Nc2cccc(-c3cc(C)c(C(=O)N(C)C4(C(=O)O)CC4)c(C)c3)c2)ccc1Cl result="11 nM"
molecule="Cc1cc(C(C)Nc2cccc(-c3ccc(C(=O)N(C)[C@@H](C)C(=O)O)c(Cl)c3)c2)ccc1Cl (some centres unmarked)" result="2 nM"
molecule="CCc1cc(-c2cccc(NC(C)c3cc(C)c(Cl)c(C)c3)c2)ccc1C(=O)N(C)[C@@H](C)C(=O)O (some centres unmarked)" result="5 nM"
